tested on: HT-29; experiment: In vitro tumor cell proliferation inhibition test (CTG); type: cell-based, Human; details: Homo sapiens, HT-29, Colorectal cancer, 4-7 days
pIC50: −log10 of the molar value.

Smiles Representation | pIC50
CC(=O)c1c(C)c2cnc(Nc3ccc4c(c3)OC[C@@H]3CN(C5CCN(C)CC5)CCN43)nc2n(C2CCCC2)c1=O | 6.95

---

tested on: MDA-MB-453; assay: In vitro tumor cell proliferation inhibition test (CTG); assay type: cell-based; details: Homo sapiens, MDA-MB-453, HR-/HER2+ Breast cancer, 4-7 days
IC50 listing for selected compounds.

Compound | IC50
CC(=O)c1c(C)c2cnc(Nc3ccc4c(c3)OC[C@@H]3CN(C5CCN(C)CC5)CCN43)nc2n(C2CCCC2)c1=O [Compound A] | 384 nM
CC(=O)c1c(C)c2cnc(Nc3ccc(N4CCNCC4)cn3)nc2n(C2CCCC2)c1=O [Palbociclib, reference compound] | 188 nM

---

system: SK-MEL-5; test: In vitro tumor cell proliferation inhibition test (CTG); format: cell-based, Human; settings: Homo sapiens, SK-MEL-5, Melanoma, 4-7 days

Smiles Representation | Assay Target | IC50 / µM
CC(=O)c1c(C)c2cnc(Nc3ccc4c(c3)OC[C@@H]3CN(C5CCN(C)CC5)CCN43)nc2n(C2CCCC2)c1=O | SK-MEL-5 | 9.5
